Numbers sourced from the supplement of paper PMC9732359.

# protein stability index per record follows
# experiment: protein stability index of a GFP-peptide fusion (yeast GPS) (PSI 1-4); higher = more stable; sorted into four equal gates, so the index is relative within each strain
# condition-label: pdr5∆
# print the numeric value only

Use these answered entries as a reference point.
LSNPSNQNICTSVTRRS [GRR1] = 2.49
RGGVKRISGLIYEEVRA [HHF1] = 3.13
EEKVLSTRLKKACKTAD [SRP68] = 3.22
IDFTLLNRLLRLIVDPN [PRP8] = 1.88
EIILKLCRNPLTSGLLY [YJL039C/NUP192] = 1.84

Query: Can you look up the measured protein stability index of VEKNEIGKMYDEYLGSH [NNF1] for me?
Response: 3.3

Query: protein stability index lookup needed for SIYKYIHLNELLTNDES [SNF12] , thanks.
Response: 2.71

====

# experiment: protein stability index of a GFP-peptide fusion (yeast GPS) (PSI 1-4); higher = more stable; sorted into four equal gates, so the index is relative within each strain
# condition-label: san1∆
Collected protein stability index values appear next to each entry.

Query: I am curious: what protein stability index value has been reported for TTPEKPEETPLEELAET [FAS2] ?
Response: 3.28

Query: What protein stability index value was documented for this sequence, AIFPYQDPIFGSVLLTL [ECM29] ?
Response: 1.29

Query: Query (sequence): SGTYHLNCGNGMGIGFI [POP1] ; field requested: protein stability index
Response: 2.44

====

# experiment: protein stability index of a GFP-peptide fusion (yeast GPS) (PSI 1-4); higher = more stable; sorted into four equal gates, so the index is relative within each strain
# condition-label: san1∆
Tag: 1 if measured protein stability index is not below 3, 0 if it is.

Would you please look over these solved cases?
ITSFLLSKMENVNLDDY [NAS6] = 0
STNSNSKPSTASPSAHT [RPN4] = 0
EEEQDTGESEESSSEDD [IRR1] = 1
KLLKIPKFISEALAFTS [YDL116W/NUP84] = 0
TFRLPKTLKLARAPKYA [RPL25] = 0

Query: protein stability index >= 3 for LRLGRGINPNTFRIFHN [YDL088C/ASM4] ?
Response: 0

Query: Please indicate if the recorded protein stability index for SKQNGSKFHFSWNESED [PRP28] meets or exceeds 3.
Response: 0

====

# experiment: protein stability index of a GFP-peptide fusion (yeast GPS) (PSI 1-4); higher = more stable; sorted into four equal gates, so the index is relative within each strain
# condition-label: pdr5∆
Classify as follows. Reported protein stability index greater than or equal to 3: yes (1). Reported protein stability index below: no (0).

Previously resolved entries follow.
EDEDDGESEKSSDVDMD [RPC53] = yes (1)
QLKYDTSVQEKELMLQS [YIL149C/MLP2] = no (0)
YKKIPLLGPTLEDHTPP [QCR10] = no (0)
VKAAINFSNVTDLTNNS [YIL149C/MLP2] = yes (1)
GVWVRYDSRSGTHNMYK [RPL20A] = no (0)

Kindly consider the entry below.
Query: API: above_or_equal(metric=protein stability index, cutoff=3) for item KKMTKKAKRSNLYTPKA [PRP8]
Response: no (0)

====

# experiment: protein stability index of a GFP-peptide fusion (yeast GPS) (PSI 1-4); higher = more stable; sorted into four equal gates, so the index is relative within each strain
# condition-label: san1∆
endpoint: protein stability index
Returns: the value as a bare number; no unit string appended.

# count of solved cases: 6
KRCMDDLNPLKTLNLFK [RPO31] = 2.69
YYNPQAGTKITICIELK [RGR1] = 2.1
LLSKKHGQLKLSIQYMI [RPN5] = 1.36
NISSSQQLLPAPQLFPY [DSN1] = 2.62
KDRYINGDKKVDIYSLP [YMR129W/POM152] = 3.03
ITHTENYNDLIVNYEDL [BRN1] = 2.56

Query: Consider the sequence DITVHGEQIIVHPVNER [RRP45] and give its measured protein stability index.
Response: 1.82

Query: Which protein stability index is reported for this sequence? KFPDMGSLWVEFCDEPS [RPB5]
Response: 2.9

Query: # get_value(readout='protein stability index', item= ISVARKIYDAFPQTAML [DIS3] )
Response: 2.61

Query: Reported protein stability index, sequence IEHNLRVISEYYSRITL [RPN5] : ____
Response: 2.41

Query: Reported protein stability index, sequence LMNGVKPFKSFLKKNII [FAS1] : ____
Response: 3.36

Query: Any idea what protein stability index was measured for ITLALADAGIELVDMAG [MTR3] ?
Response: 2.2

Query: Give its protein stability index value. Item: FIRVIGSELVQKYVGEG [RPT1]
Response: 3

====

Reported values of protein stability index for individual entries
# experiment: protein stability index of a GFP-peptide fusion (yeast GPS) (PSI 1-4); higher = more stable; sorted into four equal gates, so the index is relative within each strain
# condition-label: san1∆
Just the number, please, no unit attached.

Worked cases, protein stability index given:
LANWFLEVYASGNPNAT [YML031W/NDC1] = 2.37
GSIEEPELNVSLNLTDD [MCD1] = 3.15
SKSLQESGDTQEEDEEE [RPC82] = 3.29
IDYALTAVKQGVTSLGI [PRE8] = 1.93
SLHRQQQQQQQQVPPLP [DLS1] = 2.63

Query: GET /values?readout=protein stability index&item= VVRNMLALTTLSEPLIK [YCG1]
Response: 1.4

Query: protein stability index for TVSRAYGGSRCANCVKE [RPL34A] ?
Response: 2.43

====

# experiment: protein stability index of a GFP-peptide fusion (yeast GPS) (PSI 1-4); higher = more stable; sorted into four equal gates, so the index is relative within each strain
# condition-label: doa10∆
# cutoff 3 applies to protein stability index; >= gives true, < gives false

Below, 4 sequences whose answers are already recorded.
FPEENIIDAKTRNEQTT [MCD1] = true
LDALTRHIKSKHEDLSL [RPN4] = false
RELEQIKPKIALQDKEI [SNF12] = true
FESLYNSNDSVFVGSGK [BRR2] = true

Query: Is the recorded value of protein stability index equal to or greater than 3 for this sequence? LGKWYSKEDYETLKRDR [ARP7]
Response: true

Query: Please check the record EKLTLVTLSEIYNELSY [CSN9] and state if its protein stability index is at or above 3.
Response: false

Query: Does the reported protein stability index for FNDFSNIKTSEWDLYPQ [REC8] fall at or above the 3 mark?
Response: false

====

# experiment: protein stability index of a GFP-peptide fusion (yeast GPS) (PSI 1-4); higher = more stable; sorted into four equal gates, so the index is relative within each strain
# condition-label: san1∆
endpoint: protein stability index
Give the figure only, with no unit attached.

KYREGQVLFQGLIYSFN [POP1] = 2.46
MAESHRLYVKGKHLSYQ [RPL33A] = 2.52
RLYVKGKHLSYQRSKRV [RPL33A] = 1.67
TEDILKEISTRVFNAKD [YCS4] = 3.25
SMVYSNVGELIEKNVME [RRP4] = 2.55
KPYVDRFAFSVIWELDD [DIS3] = 2.15
SDWNPQADLQAMDRAHR [ISW2] = 3.14
YLIKLLGFEVKDQALIG [SIR2] = 2.1

Shifting focus to the sequence that follows.
Query: Name the reported protein stability index value associated with the sequence VYINPSGEKIDFLLSDW [BRR2]
Response: 3.22

====

# experiment: protein stability index of a GFP-peptide fusion (yeast GPS) (PSI 1-4); higher = more stable; sorted into four equal gates, so the index is relative within each strain
# condition-label: doa10∆
endpoint: protein stability index
Reply with the value as a number alone.

EQFYTKDIIDPKLTSIF [RPN2] = 2.32

Query: Suppose we examine the sequence IDSFFLYVLPSFNIPRL [YMR129W/POM152] ; what protein stability index value has been reported?
Response: 1.77

Query: // query protein stability index value for entry GQSSVKHEDFVEGISEV [RPT5]
Response: 3.7

Query: Entry QLKYDTSVQEKELMLQS [YIL149C/MLP2] : reported protein stability index = ?
Response: 2.23

Query: Given the entry ALTTIKGVGRRYSNLVC [RPS18A] , report its measured protein stability index.
Response: 2.56

Query: For DFTLPEDFAPLLAEEEE [PRP8] , what is its reported protein stability index?
Response: 3.42

Query: // query protein stability index value for entry VDRLKIGGSLARIALRH [RPS25A]
Response: 2.66

Query: So what does the record say about protein stability index for GRNIGHPIIQDKEGNGV [RPB3] ?
Response: 3.52

Query: Given ANPKKLALMTAHSLSPK [CDC53] , state its recorded protein stability index.
Response: 2.43

Query: Reported protein stability index, sequence FGAKPEEQKSSDTSKPA [YJL041W/NSP1] : ____
Response: 3.23

Query: Please give the measured protein stability index for this sequence: LAEIKKTPLLKQYLSAS [RPL6B]
Response: 1.54
